I'd appreciate it if you could supply pIC50 values for the items below.
- assayedTarget: Protein kinase C delta type (Homo sapiens, UniProt Q05655)
- Sequence (Q05655 whole entry): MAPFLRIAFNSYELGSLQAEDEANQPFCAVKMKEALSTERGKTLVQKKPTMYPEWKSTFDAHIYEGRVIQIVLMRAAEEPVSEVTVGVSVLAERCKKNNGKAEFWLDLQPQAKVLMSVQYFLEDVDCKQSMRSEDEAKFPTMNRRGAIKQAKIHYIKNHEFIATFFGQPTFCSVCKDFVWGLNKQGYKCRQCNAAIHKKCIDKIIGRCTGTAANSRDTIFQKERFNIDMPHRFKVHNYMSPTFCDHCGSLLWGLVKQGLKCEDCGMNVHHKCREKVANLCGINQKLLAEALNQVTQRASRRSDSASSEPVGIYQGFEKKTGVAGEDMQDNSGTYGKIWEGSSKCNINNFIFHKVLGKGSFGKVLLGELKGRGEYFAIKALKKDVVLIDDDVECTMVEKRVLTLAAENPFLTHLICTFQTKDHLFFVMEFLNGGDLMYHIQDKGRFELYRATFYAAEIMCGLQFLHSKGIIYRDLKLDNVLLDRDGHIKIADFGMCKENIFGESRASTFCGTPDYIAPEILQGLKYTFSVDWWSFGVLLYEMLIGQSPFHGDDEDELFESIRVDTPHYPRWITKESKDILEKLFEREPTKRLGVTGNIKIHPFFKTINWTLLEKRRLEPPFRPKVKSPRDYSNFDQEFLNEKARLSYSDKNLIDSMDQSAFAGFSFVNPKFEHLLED
- testName: Inhibition of Human Protein kinase C delta
As a rule, pIC50 stands for the negative log10 of the concentration, concentration in M.

Consider CC(C)(C)C(=O)OCn1nnc(-c2cccc(O)c2C(=O)c2c(O)cc(C(=O)O[C@@H]3CCC[C@H]3NC(=O)c3ccc(O)cc3)cc2O)n1 . Its measured pIC50 is 5.70

Consider Cn1nnnc1-c1cccc(O)c1C(=O)c1c(O)cc(C(=O)O[C@@H]2CCC[C@H]2NC(=O)c2ccc(O)cc2)cc1O . Its measured pIC50 is 6.89

Consider Cn1nnc(-c2cccc(O)c2C(=O)c2c(O)cc(C(=O)O[C@@H]3CCC[C@H]3NC(=O)c3ccc(O)cc3)cc2O)n1 . Its measured pIC50 is 7.05

Consider O=C(N[C@@H]1CCC[C@H]1OC(=O)c1cc(O)c(C(=O)c2c(O)cccc2-c2nn[nH]n2)c(O)c1)c1ccc(O)cc1 . Its measured pIC50 is 7.70

Consider O=C(N[C@@H]1CCC[C@H]1OC(=O)c1cc(O)c(C(=O)c2c(O)cccc2NC(=O)C(F)(F)F)c(O)c1)c1ccc(O)cc1 . Its measured pIC50 is 5.36

Consider CS(=O)(=O)Nc1cccc(O)c1C(=O)c1c(O)cc(C(=O)O[C@@H]2CCC[C@H]2NC(=O)c2ccc(O)cc2)cc1O . Its measured pIC50 is 7.52

Consider CC(=O)Nc1cccc(O)c1C(=O)c1c(O)cc(C(=O)O[C@@H]2CCC[C@H]2NC(=O)c2ccc(O)cc2)cc1O . Its measured pIC50 is 6.38

Consider CC(C)(C)C(=O)OCn1nnnc1-c1cccc(O)c1C(=O)c1c(O)cc(C(=O)O[C@@H]2CCC[C@H]2NC(=O)c2ccc(O)cc2)cc1O . Its measured pIC50 is 6.52
